target-desc: T1, human SLC34A2 (human, UniProt O95436 1-690)
T1 construct: whole, on cells; also called human solute carrier 34 A2; NaPi2b
T1 sequence (looked up): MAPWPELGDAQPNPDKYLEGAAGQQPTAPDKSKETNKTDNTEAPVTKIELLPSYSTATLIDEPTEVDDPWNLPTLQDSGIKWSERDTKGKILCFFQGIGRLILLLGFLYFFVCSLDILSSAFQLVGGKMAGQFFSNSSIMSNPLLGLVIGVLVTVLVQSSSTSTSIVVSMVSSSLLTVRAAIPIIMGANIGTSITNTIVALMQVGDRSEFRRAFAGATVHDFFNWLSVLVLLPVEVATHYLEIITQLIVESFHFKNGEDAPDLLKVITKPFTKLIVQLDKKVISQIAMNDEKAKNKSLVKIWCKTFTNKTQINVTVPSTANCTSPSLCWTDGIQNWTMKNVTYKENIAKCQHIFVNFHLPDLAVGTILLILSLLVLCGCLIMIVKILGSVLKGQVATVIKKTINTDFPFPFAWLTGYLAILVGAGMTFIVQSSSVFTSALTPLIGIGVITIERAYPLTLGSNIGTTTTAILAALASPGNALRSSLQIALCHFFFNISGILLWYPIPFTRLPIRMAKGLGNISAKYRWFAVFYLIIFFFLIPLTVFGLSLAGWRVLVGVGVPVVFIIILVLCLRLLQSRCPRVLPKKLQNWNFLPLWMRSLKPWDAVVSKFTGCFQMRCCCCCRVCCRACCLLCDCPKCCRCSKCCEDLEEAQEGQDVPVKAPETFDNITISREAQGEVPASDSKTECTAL
assay-details: FACS, HEK293/human SLC34A2 cells
Reported EC50 values for the following binders.
Numbers only here, please. The scale is nM.

binder	numeric-result
62G10E4G8.p3.z15 hIgG1 (antibody, V domains shown, humanized hIgG1) VH: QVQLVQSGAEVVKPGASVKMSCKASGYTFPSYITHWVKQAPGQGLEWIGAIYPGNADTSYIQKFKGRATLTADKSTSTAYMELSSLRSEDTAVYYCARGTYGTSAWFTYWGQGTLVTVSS VL: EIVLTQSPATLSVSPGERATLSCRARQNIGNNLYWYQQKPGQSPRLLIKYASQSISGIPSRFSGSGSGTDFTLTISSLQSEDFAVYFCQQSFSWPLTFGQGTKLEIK	2.86
91C9F1.p1.z7 hIgG1 (antibody, V domains shown, humanized hIgG1) VH: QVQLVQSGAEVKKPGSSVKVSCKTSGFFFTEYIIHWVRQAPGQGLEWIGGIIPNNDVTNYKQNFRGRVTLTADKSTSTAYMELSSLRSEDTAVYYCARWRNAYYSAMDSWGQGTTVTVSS VL: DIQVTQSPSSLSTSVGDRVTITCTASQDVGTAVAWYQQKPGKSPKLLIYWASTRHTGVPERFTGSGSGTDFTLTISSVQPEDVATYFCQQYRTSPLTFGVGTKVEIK	2.72
63A11D5B4.p1.z9 hIgG1 (antibody, V domains shown, humanized hIgG1) VH: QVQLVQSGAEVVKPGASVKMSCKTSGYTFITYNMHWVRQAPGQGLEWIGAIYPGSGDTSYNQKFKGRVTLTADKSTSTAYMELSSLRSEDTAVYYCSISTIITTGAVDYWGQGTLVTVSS VL: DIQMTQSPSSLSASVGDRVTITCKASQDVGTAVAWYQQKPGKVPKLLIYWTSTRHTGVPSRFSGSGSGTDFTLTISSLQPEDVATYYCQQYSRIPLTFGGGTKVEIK	5.87

Consider the additional binder presented here.
For 30H9B8F9.p1.z5 hIgG1 (antibody, V domains shown, humanized hIgG1) VH: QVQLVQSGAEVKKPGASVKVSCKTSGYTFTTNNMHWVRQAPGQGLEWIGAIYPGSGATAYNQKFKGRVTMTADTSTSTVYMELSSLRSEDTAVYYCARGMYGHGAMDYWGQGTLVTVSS VL: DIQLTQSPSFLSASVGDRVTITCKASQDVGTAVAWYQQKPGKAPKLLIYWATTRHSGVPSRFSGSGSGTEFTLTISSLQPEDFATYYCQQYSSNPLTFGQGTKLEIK , what is its reported EC50?
2.4
